These measurements were taken from the supplement of paper PMC6555819.

test system: RARb homodimer (NR concentration 270 nM); assay: PBM binding z-score (relative to random genomic background probes); higher = stronger binding; sequences stand for … in GC…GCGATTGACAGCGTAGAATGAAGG
Would you kindly list PBM binding z-score for each of these sequences?
// no unit, no text: just the number

Give the measured PBM binding z-score for `ACTAGCAGGCCAAGGGTCAATCAAGATTAGTCCG`
3.46

Write down PBM binding z-score measured for item `AGAACGAGGGCACGCTGAGTTCATAGCAGAGTAG`
2.79

Return value of PBM binding z-score for input `AGAACGAGGGCAATAAGTTGATAGCACGGGTGGC` , no commentary.
1.11

For the sequence `CAAACTAGGTCAGAACAGGACAGTGAAGGATGAT` , give its measured PBM binding z-score value.
2.11

Give the reported PBM binding z-score for this sequence. `AGAACGAGGGCACGGTGAGTTGATAGCAGAGTAG`
1.6

Supply reported PBM binding z-score belonging to this sequence: `TTTCGGAGGACACGAAAGGTCAGAGCTCGACATC`
4.68

Check the records and state PBM binding z-score for `ATCGACAGGTCGAGGTGAGTATAGAGAAAGGGAA`
0.915

Given the sequence `CTGAGTAGGTTATGGGGCATTCAGGCAACGGTGA` , write its reported PBM binding z-score.
0.905

Give the value of PBM binding z-score reported for the following: `ATCTCTAGGTAACCAAGGTCAGTGAATGCCGAAC`
3.5

Name the recorded PBM binding z-score of the item `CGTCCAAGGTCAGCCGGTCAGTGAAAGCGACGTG` in your answer.
4.5

State its PBM binding z-score: `CCTGCTAGGTCAAGGTCAGCTAATCTACAGTATG`
5.07

Item `ATCGAAGGGTCGACGAGGTGAGTATACACCGTTT` : provide PBM binding z-score
1.42

====

For each entry below, report its PBM binding z-score value.
test system: THRa homodimer (NR concentration 90 nM); assay: PBM binding z-score (relative to random genomic background probes); higher = stronger binding; sequences stand for … in GC…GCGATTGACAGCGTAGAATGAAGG
The answer should be a number; do not append a unit.

Answer with reported PBM binding z-score of `GGAACGAGGACAAGTTGATAGCAGAGTTTGATGG`
1.58

Give me measured PBM binding z-score, please, for this sequence: `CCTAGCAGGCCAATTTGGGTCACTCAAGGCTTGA`
0.606

Return PBM binding z-score for the following sequence: `ACTAATAGTTGAGACGAGGGCAACCGATAGGTTG`
0.12

Return PBM binding z-score for the following sequence: `ACAGACAGGTGATGAAGGTAACTCATGCTATCAT`
-0.485

Name the recorded PBM binding z-score of the item `CTCGAAAGGTCGGTTGCGGTGAGTATACGGATAA` in your answer.
-0.0628

Report measured PBM binding z-score; entry is `TCATATAGGTAATACAGGTGAAAGGCGGCATCTA`
0.543

====

test system: RARg homodimer (NR concentration 270 nM); assay: PBM binding z-score (relative to random genomic background probes); higher = stronger binding; sequences stand for … in GC…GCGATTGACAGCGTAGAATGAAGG
Label false if PBM binding z-score falls below 4; label true in every other case.

Quick check: does `CCGACTGGGGGAGAAAGGTTACCATACCATCCGG` have PBM binding z-score greater than or equal to 4?
false

Does PBM binding z-score meet or surpass 4 for `TCTGCTAGGTCAGTTGGTCAGGTAACGAGCTGCC` ?
false

Please indicate if the recorded PBM binding z-score for `CAAACTAGGTCAAGATGTCAAAGTCCGCTTCCCG` meets or exceeds 4.
true

# bool: PBM binding z-score of `ACAGACAGGTGAGTGAAGGTAACTTAGCTGGACG` >= 4
false

Kindly determine if PBM binding z-score recorded for `TCGCGTAGGTTAGGGGCATTCAGAATGGCGTCGA` is above or exactly 4.
false

Determine whether this sequence has PBM binding z-score no lower than 4: `CCTTACGGGTCAAGGTTATAGCGCGGGTGGTACG`
true

Does `CGAACTAGGTCATTGACAGGAGAGTGAATAGTAA` have a reported PBM binding z-score of at least 4?
true

Could you please find out whether `ATCTCTAGGAAACAAGTTCAGTGAAAGAGAGGAC` has PBM binding z-score that meets 4 or exceeds it?
false

Hi, just wondering whether `TCGAGTAGGTTAGGGGCCTTCAGAATGGCGTCGA` shows PBM binding z-score of 4 or higher.
false

Does the reported PBM binding z-score for `AGTACAGGGTCACTAGGCCAGAGTAGGTACGAAT` fall at or above the 4 mark?
true

hey, is PBM binding z-score for this one >= 4? `AGAATGAGGTTATTAATATCAGGGAATTGCGGTC`
false

Identify whether the reported PBM binding z-score of the following sequence is 4 or greater: `ACTCGTAGGACAAAGGTCAGAGCTACGCCAGTGA`
true

====

test system: RARb homodimer (NR concentration 270 nM); assay: PBM binding z-score (relative to random genomic background probes); higher = stronger binding; sequences stand for … in GC…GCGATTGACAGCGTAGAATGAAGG
Classification field: enter fulfilled for PBM binding z-score values not below 3, not fulfilled for values below it.

Tell me whether PBM binding z-score is at least 3 here: `AGCATGAGGTTATACGTAGATCAGGGAAGAAAGT`
not fulfilled

Reported PBM binding z-score at or above 3? `ATCTCTAGGTAAGGTTCAGTGAAAGATCGATAGA`
not fulfilled

State whether the measured PBM binding z-score reaches 3, counting equality as reaching it, for `GCTAGCAGGCCATTTGGGTCACTAAATGACGGGC`
not fulfilled

Confirm if PBM binding z-score reported for the sequence `GCTATTAGTTGAAAGGGTAACCGAATGATTCTCG` is 3 or above.
not fulfilled

Test whether the sequence `GCCTGTAGATCAAGGTTAAGAAAGACTAAGCTAA` records PBM binding z-score of 3 or higher.
not fulfilled

Could you verify whether the entry `AATACAGGGTCATTGTAGGCCAGAGTACGCACAG` shows PBM binding z-score of no less than 3?
fulfilled

Is PBM binding z-score at least 3? Consider `CTACCAAGGTGAACAAGGTCTTTGATTACTATTC`
not fulfilled

Determine whether measured PBM binding z-score meets or exceeds 3 for `CGAACTAGGTCATTGACAAGACAGTGAATAGTAA`
not fulfilled

# check: PBM binding z-score of `TAGCCCAGGTCATTCAGGGGCCAGTATAGAAAGC` is greater than or equal to 3
fulfilled

Given the entry `CAAACTAAGTCACGAAAGGTCAAAGTCGAATGAC` , answer whether its PBM binding z-score meets or surpasses 3.
fulfilled

Would you say `CCGACTGGGTCATAAGGTTACCATAAGCCAGCCC` shows PBM binding z-score at minimum 3?
fulfilled

Identify whether the reported PBM binding z-score of the following sequence is 3 or greater: `CGAACTCGGTCATCCAGGACAGTGAATACATTGA`
not fulfilled
